System tested: NUAK family SNF1-like kinase 1 (Homo sapiens) (UniProt O60285)
Sequence (O60285 whole entry): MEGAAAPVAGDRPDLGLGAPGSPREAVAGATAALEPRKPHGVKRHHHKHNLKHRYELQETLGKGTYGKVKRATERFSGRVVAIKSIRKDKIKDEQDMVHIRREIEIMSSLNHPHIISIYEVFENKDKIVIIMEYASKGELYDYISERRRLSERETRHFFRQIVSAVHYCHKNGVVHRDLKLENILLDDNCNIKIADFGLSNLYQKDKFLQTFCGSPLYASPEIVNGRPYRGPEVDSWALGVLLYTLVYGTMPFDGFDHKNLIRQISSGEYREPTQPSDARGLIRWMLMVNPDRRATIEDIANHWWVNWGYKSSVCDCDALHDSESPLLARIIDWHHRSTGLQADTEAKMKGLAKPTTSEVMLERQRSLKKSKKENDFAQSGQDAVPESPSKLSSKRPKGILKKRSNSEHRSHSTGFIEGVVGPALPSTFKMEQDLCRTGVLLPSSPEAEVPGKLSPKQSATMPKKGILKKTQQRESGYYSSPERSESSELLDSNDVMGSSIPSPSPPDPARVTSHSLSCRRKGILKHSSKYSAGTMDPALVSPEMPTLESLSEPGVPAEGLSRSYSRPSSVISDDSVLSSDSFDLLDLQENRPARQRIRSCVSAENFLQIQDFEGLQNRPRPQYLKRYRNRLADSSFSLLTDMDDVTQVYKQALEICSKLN
Procedure details: Inhibition of ARK5 (unknown origin) assessed as remaining activity using botin-anti-his and Lanthascreen Eu-streptavidin at 1 uM incubated for 2 hrs by TR-FRET based Lanthascreen kinase activity assay relative to control
Threshold-based label: Activity under 60% gives YES, Activity not under 60% gives NO.

Molecule: Cc1cn(C)nc1Nc1cc2c(c(N)n1)c(C#N)c(N1CCC[C@H]1C)n2C
Label class: YES
--
Molecule: C[C@@H]1CCCN1c1c(C#N)c2c(N)nc(Nc3ccn(C)n3)cc2n1C
Label class: YES
--
Molecule: C[C@@H]1CCCN1c1c(C#N)c2c(N)nccc2n1C
Label class: NO
--
Molecule: C[C@@H]1CCCN1c1c(C#N)c2c(N)nc(Nc3cn[nH]c3)nc2n1C
Label class: NO

Could you please tell me whether Activity recorded for `C[C@@H]1CCCN1c1c(C#N)c2c(N)nc(Nc3cnn(C)c3)nc2n1C` is less than 60%?
NO

State whether 60% exceeds Activity recorded for `C[C@@H]1CCCN1c1c(C#N)c2c(N)ncnc2n1C` .
NO

Is Activity strictly under 60% for the entry `Cc1n[nH]cc1Nc1nc(N)c2c(C#N)c(N3CCC[C@H]3C)n(C)c2n1` ?
YES

---

Procedure details: Half life in steady state in Beagle dog plasma at 1 mg/kg, IV […]
Format: ADME, organism-based, Canis lupus familiaris
The following compounds are shown together with reported half-life values.
Hi! Could you send only the number? It should be in min, unit omitted.

Molecule: Cc1c(Nc2nc(N)c3c(C#N)c(N4CCC[C@H]4C)n(C)c3n2)cnn1[C@@H]1CCOC1
Display unit: min
half-life: 30

Give reported half-life value for `Cc1c(Nc2nc(N)c3c(C#N)c(N4CCC[C@H]4C)n(C)c3n2)cnn1[C@H]1CCOC1`
36

---

System tested: Leucine-rich repeat serine/threonine-protein kinase 2 (Homo sapiens, UniProt Q5S007)
Sequence (Q5S007 whole entry): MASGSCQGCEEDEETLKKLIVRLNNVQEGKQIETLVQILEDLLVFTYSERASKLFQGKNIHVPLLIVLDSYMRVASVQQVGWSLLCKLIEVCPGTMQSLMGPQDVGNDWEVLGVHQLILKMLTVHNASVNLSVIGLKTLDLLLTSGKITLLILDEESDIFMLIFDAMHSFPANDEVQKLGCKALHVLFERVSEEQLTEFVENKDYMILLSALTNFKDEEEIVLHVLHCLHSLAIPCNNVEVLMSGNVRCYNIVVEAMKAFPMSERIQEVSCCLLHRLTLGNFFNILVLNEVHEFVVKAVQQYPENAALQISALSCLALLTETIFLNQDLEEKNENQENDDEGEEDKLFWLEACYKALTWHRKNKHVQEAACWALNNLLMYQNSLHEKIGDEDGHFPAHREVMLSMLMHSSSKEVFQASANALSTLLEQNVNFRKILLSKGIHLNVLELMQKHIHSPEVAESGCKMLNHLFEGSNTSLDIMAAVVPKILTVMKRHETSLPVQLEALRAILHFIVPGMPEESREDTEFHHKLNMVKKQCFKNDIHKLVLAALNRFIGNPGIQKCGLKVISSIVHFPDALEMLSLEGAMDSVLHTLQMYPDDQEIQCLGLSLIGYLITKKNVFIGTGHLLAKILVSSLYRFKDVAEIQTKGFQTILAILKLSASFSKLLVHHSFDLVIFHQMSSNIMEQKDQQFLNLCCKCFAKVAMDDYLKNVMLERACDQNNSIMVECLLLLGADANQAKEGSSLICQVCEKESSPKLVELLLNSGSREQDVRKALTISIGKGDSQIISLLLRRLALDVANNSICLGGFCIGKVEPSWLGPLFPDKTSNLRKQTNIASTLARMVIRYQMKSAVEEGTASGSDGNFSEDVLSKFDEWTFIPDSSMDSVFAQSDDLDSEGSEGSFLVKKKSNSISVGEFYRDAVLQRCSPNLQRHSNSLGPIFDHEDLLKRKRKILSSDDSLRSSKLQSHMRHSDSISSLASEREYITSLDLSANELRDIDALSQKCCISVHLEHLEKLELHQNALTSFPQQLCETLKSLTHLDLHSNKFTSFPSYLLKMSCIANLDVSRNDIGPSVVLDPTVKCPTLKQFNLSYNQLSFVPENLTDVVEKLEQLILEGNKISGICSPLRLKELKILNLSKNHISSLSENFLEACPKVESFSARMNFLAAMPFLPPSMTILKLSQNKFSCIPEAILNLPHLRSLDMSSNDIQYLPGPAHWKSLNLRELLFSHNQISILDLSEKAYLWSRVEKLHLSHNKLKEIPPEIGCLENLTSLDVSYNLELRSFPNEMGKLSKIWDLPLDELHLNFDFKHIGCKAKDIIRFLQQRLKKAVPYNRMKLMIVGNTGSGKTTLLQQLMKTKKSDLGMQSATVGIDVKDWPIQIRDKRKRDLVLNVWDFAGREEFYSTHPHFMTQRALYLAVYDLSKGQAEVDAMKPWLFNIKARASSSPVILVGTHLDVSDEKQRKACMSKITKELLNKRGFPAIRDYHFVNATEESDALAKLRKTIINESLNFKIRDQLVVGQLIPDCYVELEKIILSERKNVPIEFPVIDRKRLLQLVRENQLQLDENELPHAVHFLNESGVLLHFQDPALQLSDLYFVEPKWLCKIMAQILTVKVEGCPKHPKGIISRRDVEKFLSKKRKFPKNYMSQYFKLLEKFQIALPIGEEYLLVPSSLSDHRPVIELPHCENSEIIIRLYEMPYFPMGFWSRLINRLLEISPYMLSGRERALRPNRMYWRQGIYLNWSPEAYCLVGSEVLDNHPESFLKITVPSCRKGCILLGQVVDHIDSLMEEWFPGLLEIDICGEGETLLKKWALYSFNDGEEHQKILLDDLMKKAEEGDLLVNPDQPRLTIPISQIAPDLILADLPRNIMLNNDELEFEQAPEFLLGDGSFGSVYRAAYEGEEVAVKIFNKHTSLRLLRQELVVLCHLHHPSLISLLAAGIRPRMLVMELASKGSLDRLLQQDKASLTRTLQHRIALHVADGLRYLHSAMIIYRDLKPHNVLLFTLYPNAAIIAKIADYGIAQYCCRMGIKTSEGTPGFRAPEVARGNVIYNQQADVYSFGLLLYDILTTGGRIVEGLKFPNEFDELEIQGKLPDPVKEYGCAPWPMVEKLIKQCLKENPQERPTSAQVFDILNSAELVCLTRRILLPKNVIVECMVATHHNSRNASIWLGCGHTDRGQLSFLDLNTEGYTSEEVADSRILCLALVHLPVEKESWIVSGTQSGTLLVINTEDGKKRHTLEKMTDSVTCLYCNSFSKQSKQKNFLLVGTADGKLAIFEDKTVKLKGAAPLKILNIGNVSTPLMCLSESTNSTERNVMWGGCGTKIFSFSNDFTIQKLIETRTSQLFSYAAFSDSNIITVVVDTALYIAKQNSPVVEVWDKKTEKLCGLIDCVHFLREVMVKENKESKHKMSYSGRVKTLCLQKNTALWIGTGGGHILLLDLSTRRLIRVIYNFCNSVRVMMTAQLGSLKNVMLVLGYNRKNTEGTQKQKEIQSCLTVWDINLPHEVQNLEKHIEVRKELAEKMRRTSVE
Procedure details: Inhibition of recombinant human LRRK2 WT using fluorescein-labeled LRRKtide as substrate in presence of ATP preincubated for 50 mins followed by anti-phospho-LRRKtide antibody addition and measured after 30 mins by TR-FRET based Lanthascreen kinase activity assay
Observed property: IC50

Field: example entries. Status: answers known.
Compound: Cc1c(Nc2nc(N)c3c(C#N)c(N4CCC[C@H]4C)n(C)c3n2)cnn1[C@@H]1CCOC1
IC50: 20 nM
//
Compound: C[C@@H]1CCCN1c1c(C#N)c2c(N)ncnc2n1C
IC50: 15 nM
//
Compound: Cc1nn(C2CCOC2)cc1Nc1nc(N)c2c(C#N)c(N3CCC[C@H]3C)n(C)c2n1 (single isomer, unassigned)
IC50: 44 nM
//
Compound: C[C@@H]1CCCN1c1c(C#N)c2c(N)nc(N)nc2n1C
IC50: 248 nM

Here is another compound to look at.
Report IC50 for `Cn1c(-c2cccc(F)c2F)c(C#N)c2c(N)ncnc21`
572 nM

---

System tested: Leucine-rich repeat serine/threonine-protein kinase 2 (Homo sapiens, UniProt Q5S007, G2019S)
Sequence (Q5S007 whole entry G2019S, the tested form may be a part): as the sequence (Q5S007 whole entry) above, with G2019S counted along it
Procedure details: Inhibition of recombinant human GST tagged truncated LRRK2 G2019S mutant using fluorescein-labeled LRRKtide as substrate in presence of ATP preincubated for 50 mins followed by anti-phospho-LRRKtide antibody addition and measured after 30 mins by TR-FRET based Lanthascreen kinase activity assay
Observed property: IC50 (nM)
Number in nM, nothing else.

A selection of reference data follows.
Molecule: Cc1nn(C2COC2)cc1Nc1nc(N)c2c(C#N)c(N3CCC[C@H]3C)n(C)c2n1
IC50, nM: 25
//
Molecule: C[C@H]1CCCN1c1c(C#N)c2c(N)ncnc2n1C
IC50, nM: 3080
//
Molecule: Cn1c(N2CCCC2)c(C#N)c2c(N)ncnc21
IC50, nM: 1910

Indicate the recorded IC50 value for this molecule: `C[C@@H]1CCCN1c1[nH]c2ncnc(N)c2c1C#N`
201

Tell me IC50 reported for Nc1ncnc2nc[nH]c12 [ADENINE]
15800

Assign IC50 to the following record: `Cn1c(NCc2ccccc2)c(C#N)c2c(N)ncnc21`
3530

For the molecule `Cc1c(Nc2nc(N)c3c(C#N)c(N4CCC[C@H]4C)n(C)c3n2)cnn1C` , give its measured IC50 value.
43

Give a short answer stating reported IC50 for Cc1nn(C2CCOC2)cc1Nc1nc(N)c2c(C#N)c(N3CCC[C@H]3C)n(C)c2n1 (mixture of isomers) .
12

Using known records, supply IC50 for CN(C)c1ncnc2nc[nH]c12 [DIMETHYLADENINE]
3350

State, in one line, measured IC50 of `Cn1c(NCc2ccccc2F)c(C#N)c2c(N)ncnc21`
1740

Look up IC50 of Cc1nn(C2CCOC2)cc1Nc1nc(N)c2c(C#N)c(N3CCC[C@H]3C)n(C)c2n1 (single isomer, unassigned) and report it.
28

Provide only the value of recorded IC50 for `Cn1c(N)c(C#N)c2c(N)ncnc21`
8560

State its IC50 for this molecule: `CN(C)c1c(C#N)c2c(N)ncnc2n1C`
3760

Return the recorded IC50 value; entry: `C[C@@H]1CCCN1c1c(C#N)c2c(N)ncnc2n1C`
11

Quote IC50 reported for `C[C@@H]1CCCN1c1c(C#N)c2c(N)nc(Nc3cn[nH]c3)nc2n1C` please.
6

// fetch IC50 given entry `C[C@@H]1CCCN1c1c(C(N)=O)c2c(N)ncnc2n1C`
2240

Answer with the recorded IC50 for the molecule listed here: `C[C@@H]1CCCN1c1c(C#N)c2c(N)nccc2n1C`
28

Look up and report measured IC50 for this entry: `Cc1cn(C)nc1Nc1cc2c(c(N)n1)c(C#N)c(N1CCC[C@H]1C)n2C`
1290

State, in one line, measured IC50 of `Cc1c(Nc2nc(N)c3c(C#N)c(N4CCC[C@H]4C)n(C)c3n2)cnn1CC(C)(C)O`
35

Provide only the value of recorded IC50 for `Cc1nn(CC(C)(C)O)cc1Nc1nc(N)c2c(C#N)c(N3CCC[C@H]3C)n(C)c2n1`
42

For the molecule `Cc1nn(C)cc1Nc1nc(N)c2c(C#N)c(N3CCC[C@H]3C)n(C)c2n1` , give its measured IC50 value.
30

Supply reported IC50 belonging to this molecule: `Cc1nn(CC2(O)COC2)cc1Nc1nc(N)c2c(C#N)c(N3CCC[C@H]3C)n(C)c2n1`
51
